test target: warfarin binding site of HSA (Sudlow's binding site I) (Homo sapiens)
experimental details: Competitive binding with warfarin (HSA Sudlow's binding site I)
condition label: head prints 10-3 Kbc / M-1; equimolar HSA and warfarin; reverse of the dissociation constant
value type: 10-3 Kbc / M-1, binding constant for the warfarin binding site

compound	test target	value reported
NNC(=O)c1ccncc1 [INH, isonicotinoylhydrazide, reference compound]	warfarin binding site of HSA (Sudlow's binding site I) (Homo sapiens)	0.22 ± 0.01 10^3 M-1
O=C(N/N=C/c1ccc(Oc2ccccc2)cc1)c1ccncc1	warfarin binding site of HSA (Sudlow's binding site I) (Homo sapiens)	7.8 ± 0.3 10^3 M-1

Name the reported 10-3 Kbc / M-1, binding constant for the warfarin binding site value associated with the compound O=C(NNCc1ccc(Oc2ccccc2)cc1)c1ccncc1 [Compound N34red, N'-(4-phenoxybenzyl)isonicotinohydrazide]
2.99 ± 0.17 10^3 M-1

Entry under review: COC(=O)c1ccc(/C=N/NC(=O)c2ccncc2)cc1 . Reported 10-3 Kbc / M-1, binding constant for the warfarin binding site?
18.5 ± 1.3 10^3 M-1

// returns reported 10-3 Kbc / M-1, binding constant for the warfarin binding site for input CCCCCCCCCC(=O)NNC(=O)c1ccncc1 [INH-C10, N′-decanoylisonicotinoylhydrazide]
2.43 ± 0.86 10^3 M-1

###

test target: human serum albumin (HSA) (Homo sapiens)
Sequence (P02768 25-609): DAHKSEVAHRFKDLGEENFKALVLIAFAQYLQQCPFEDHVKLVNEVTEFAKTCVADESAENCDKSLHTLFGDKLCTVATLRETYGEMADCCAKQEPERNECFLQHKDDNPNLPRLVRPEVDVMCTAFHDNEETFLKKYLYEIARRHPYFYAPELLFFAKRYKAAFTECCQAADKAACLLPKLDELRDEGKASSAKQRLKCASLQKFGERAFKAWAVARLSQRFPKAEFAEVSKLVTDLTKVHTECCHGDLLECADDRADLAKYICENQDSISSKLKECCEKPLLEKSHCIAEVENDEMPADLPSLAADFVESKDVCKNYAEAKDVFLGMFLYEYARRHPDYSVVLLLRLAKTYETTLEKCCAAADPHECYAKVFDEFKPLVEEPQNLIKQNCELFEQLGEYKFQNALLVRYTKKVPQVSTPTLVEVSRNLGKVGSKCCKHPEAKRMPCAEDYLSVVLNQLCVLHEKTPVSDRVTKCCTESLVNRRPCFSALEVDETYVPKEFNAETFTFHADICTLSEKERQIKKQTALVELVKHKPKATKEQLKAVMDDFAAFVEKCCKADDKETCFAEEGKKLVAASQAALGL
# pKd annotations
The read-out pKd is expressed as -log10 of concentration in moles per litre.

// solved cases for pKd follow
compound	value type	value reported
CCCCCCCCCC(=O)NNC(=O)c1ccncc1 [INH-C10, N′-decanoylisonicotinoylhydrazide]	pKd	3.92
O=C(NNCc1ccc(Oc2ccccc2)cc1)c1ccncc1 [Compound N34red, N'-(4-phenoxybenzyl)isonicotinohydrazide]	pKd	3.14
COC(=O)c1ccc(/C=N/NC(=O)c2ccncc2)cc1 [Compound N33]	pKd	4.10

Let us move to another entry and its pKd.
API: value(readout= pKd, system= human serum albumin (HSA) (Homo sapiens), query= O=C(N/N=C/c1ccc(Oc2ccccc2)cc1)c1ccncc1 [Compound N34] )
3.28

###

test target: warfarin binding site of HSA (Sudlow's binding site I) (Homo sapiens, UniProt P02768)
Sequence (P02768 25-609): as above
experimental details: Competitive binding with warfarin (HSA Sudlow's binding site I)
Experimental: Warfarin stock solution was also prepared with DMSO. The interaction of INH and its derivatives with HSA was further examined regarding their putative binding site. Using the dampening in the fluorescence intensity of warfarin it is possible to retrieve the HSA-compound dissociation constant for the binding site of warfarin (K dc) - Table 3. […] This concentration is given by the fluorescence intensity corresponding to […]
value type: Kd (µM)
// return numeric value only (unit: µM, not printed)

compound	test target	value type	value reported
COC(=O)c1ccc(CNNC(=O)c2ccncc2)cc1	warfarin binding site of HSA (Sudlow's binding site I) (Homo sapiens, UniProt P02768)	Kd	900
O=C(NNCc1ccc(Oc2ccccc2)cc1)c1ccncc1 [Compound N34red, N'-(4-phenoxybenzyl)isonicotinohydrazide]	warfarin binding site of HSA (Sudlow's binding site I) (Homo sapiens, UniProt P02768)	Kd	340
O=C(N/N=C/c1ccc(Oc2ccccc2)cc1)c1ccncc1	warfarin binding site of HSA (Sudlow's binding site I) (Homo sapiens, UniProt P02768)	Kd	128

# query: Kd of entry CCCCCCCCCC(=O)NNC(=O)c1ccncc1 [INH-C10, N′-decanoylisonicotinoylhydrazide]
400

What does the data say about its Kd? Entry: COC(=O)c1ccc(/C=N/NC(=O)c2ccncc2)cc1
54

// lookup Kd for NNC(=O)c1ccncc1 [INH, isonicotinoylhydrazide, reference compound]
4550

###

test target: warfarin binding site of HSA (Sudlow's binding site I) (Homo sapiens, UniProt P02768)
experimental details: Competitive binding with warfarin (HSA Sudlow's binding site I)
condition label: 10-3 Kbc / M-1, binding constant for the warfarin binding site, head prints 10-3 Kbc / M-1; equimolar HSA and warfarin; reverse of the dissociation constant
value type: Kd (µM)
Number only, in µM; omit the unit.

Consider the compound shown here: COC(=O)c1ccc(CNNC(=O)c2ccncc2)cc1 [Compound N33red] What is its recorded Kd?
746

###

test target: human serum albumin (HSA) (Homo sapiens)
condition label: K d for HSA, fluorescence intensity corrected for inner filter effects, steady-state fluorescence; text and Figure S7
value type: Kd

API: value(readout=Kd, system=human serum albumin (HSA) (Homo sapiens)) for record NNC(=O)c1ccncc1 [INH, isonicotinoylhydrazide, reference compound]
~1000 µM

###

experimental details: Octanol-water partition coefficient, shake-flask method
Format: physicochemical
condition label: pH 7.5, room temperature, preliminary assessment
value type: logP
Give the figure only, with no unit attached.

compound	logP
O=C(NNCc1ccc(Oc2ccccc2)cc1)c1ccncc1 [Compound N34red, N'-(4-phenoxybenzyl)isonicotinohydrazide]	2.6

// switching to the query compound
Fill in the blank: the reported logP of COC(=O)c1ccc(CNNC(=O)c2ccncc2)cc1 is ____.
1.33
